assay-protocol: folding enthalpy; higher = less favourable; fluorescence melt of hairpins on a sequencing array, two-state fit
measurement-context: sodium 0.088 M
Classes by folding enthalpy: low range: < -40 kcal/mol; mid range: ≥ -40 kcal/mol and < -20 kcal/mol; high range: ≥ -20 kcal/mol

>  <polymer-sequence>
GTTGTAGGAAACTATGAC ((..(((....)))..))

>  <discrete-label>
high range

$$$$
>  <polymer-sequence>
GATCAGCGGTCTGATC ((((((....))))))

>  <discrete-label>
mid range

$$$$
>  <polymer-sequence>
GGAAAAGGAAACTTTCCC ((.((((....)))).))

>  <discrete-label>
high range

$$$$
>  <polymer-sequence>
GCCGGGCGAAAGCTCCGC ((.(.((....)).).))

>  <discrete-label>
high range

$$$$
>  <polymer-sequence>
GATCGGCACCCGATC ((((((...))))))

>  <discrete-label>
mid range

$$$$
>  <polymer-sequence>
GATCGTCACTACGATC ((((((....))))))

>  <discrete-label>
low range

$$$$
>  <polymer-sequence>
GGATGGGGAAACCTATCC ((((.((....)).))))

>  <discrete-label>
mid range

$$$$
>  <polymer-sequence>
GGAAGGCGAAAGCCGTCC (((.(((....))).)))

>  <discrete-label>
high range

$$$$
>  <polymer-sequence>
GGCGTGGGAAACTGCGCC ((((..(....)..))))

>  <discrete-label>
low range

$$$$
>  <polymer-sequence>
GATCAGTTTCTGATC ((((((...))))))

>  <discrete-label>
low range

$$$$
>  <polymer-sequence>
GATCTAAACCTAGATC ((((((....))))))

>  <discrete-label>
mid range

$$$$
>  <polymer-sequence>
GGCTAATCGAAAGATGCC (((..(((....))))))

>  <discrete-label>
mid range

$$$$
>  <polymer-sequence>
GTTCTTGGAAACGAGAAC (((((.(....).)))))

>  <discrete-label>
mid range

$$$$
>  <polymer-sequence>
GATCATTTCAATGATC ((((((....))))))

>  <discrete-label>
low range

$$$$
>  <polymer-sequence>
GGGAGTGGAAACACTTCC ((.((((....)))).))

>  <discrete-label>
mid range

$$$$
>  <polymer-sequence>
GTCCTCGGAAACGAAGAC (((.(((....))).)))

>  <discrete-label>
mid range

$$$$
>  <polymer-sequence>
GCTAACGGAAACGTCAGC (((.(((....))).)))

>  <discrete-label>
mid range

$$$$
>  <polymer-sequence>
GTAAGCGAAAGCTTTTAC ((((((....)))..)))

>  <discrete-label>
high range

$$$$
>  <polymer-sequence>
AGAAACAGAAATGGTTCT ((((.((....)).))))

>  <discrete-label>
mid range

$$$$
>  <polymer-sequence>
GATCCATGGCTGGATC ((((((....))))))

>  <discrete-label>
mid range

$$$$
>  <polymer-sequence>
GCTCGGCCGAAAGGCAGC (((..(((....))))))

>  <discrete-label>
high range

$$$$

###

assay-protocol: folding enthalpy; higher = less favourable; fluorescence melt of hairpins on a sequencing array, two-state fit
measurement-context: sodium 0.088 M

>  <polymer-sequence>
GTCCGGAAACGGAC (((((....)))))

>  <folding enthalpy / kcal/mol>
-28.2

$$$$
>  <polymer-sequence>
GATCACATCGTGATC ((((((...))))))

>  <folding enthalpy / kcal/mol>
-41

$$$$
>  <polymer-sequence>
GCCGACACGAAAGTGGGC (((..(((....))))))

>  <folding enthalpy / kcal/mol>
-24.5

$$$$
>  <polymer-sequence>
GCTGATGAAAATCAGC ((((((....))))))

>  <folding enthalpy / kcal/mol>
-35.8

$$$$
>  <polymer-sequence>
GAGCTACCGAAAGGTCTC (((..(((....))))))

>  <folding enthalpy / kcal/mol>
-13.5

$$$$
>  <polymer-sequence>
GATCGACCCATCGATC ((((((....))))))

>  <folding enthalpy / kcal/mol>
-44.4

$$$$
>  <polymer-sequence>
GCTGGGCGAAAGCCTGGC ((..(((....)))..))

>  <folding enthalpy / kcal/mol>
-24.5

$$$$
>  <polymer-sequence>
GATCTGTAGACAGATC ((((((....))))))

>  <folding enthalpy / kcal/mol>
-35.5

$$$$
>  <polymer-sequence>
GATCGTGGGGACGATC ((((((....))))))

>  <folding enthalpy / kcal/mol>
-36.2

$$$$
>  <polymer-sequence>
GAAGGGGAAACCCTTC ((((((....))))))

>  <folding enthalpy / kcal/mol>
-28.6

$$$$
>  <polymer-sequence>
GATCCGCTGACGGATC ((((((....))))))

>  <folding enthalpy / kcal/mol>
-38

$$$$
>  <polymer-sequence>
GCCTACGAAAGTACGGC ((((((....))).)))

>  <folding enthalpy / kcal/mol>
-28.8

$$$$

###

assay-protocol: folding enthalpy; higher = less favourable; fluorescence melt of hairpins on a sequencing array, two-state fit
measurement-context: sodium 0.088 M

>  <polymer-sequence>
GCTGTCGAAAGACCAAGC ((((((....)))..)))

>  <unit-symbol>
kcal/mol

>  <folding enthalpy>
-19.5

$$$$
>  <polymer-sequence>
GCCGCGCGAAAGCGGTGC ((..(((....)))..))

>  <unit-symbol>
kcal/mol

>  <folding enthalpy>
-16.2

$$$$
>  <polymer-sequence>
CGAGCGGAAACGCCATCG ((((((....)))..)))

>  <unit-symbol>
kcal/mol

>  <folding enthalpy>
-12.5

$$$$
>  <polymer-sequence>
GCGTTAGGAAACCAACGC (((((.(....).)))))

>  <unit-symbol>
kcal/mol

>  <folding enthalpy>
-44.9

$$$$
>  <polymer-sequence>
GCAAAGCGAAAGCTTGC (((.(((....))))))

>  <unit-symbol>
kcal/mol

>  <folding enthalpy>
-23.8

$$$$
>  <polymer-sequence>
TGCAGGAAACTGCA (((((....)))))

>  <unit-symbol>
kcal/mol

>  <folding enthalpy>
-19.6

$$$$
>  <polymer-sequence>
GATCAACGGATTGATC ((((((....))))))

>  <unit-symbol>
kcal/mol

>  <folding enthalpy>
-28

$$$$
>  <polymer-sequence>
GACGTGGGAAACCACATC ((.((((....)))).))

>  <unit-symbol>
kcal/mol

>  <folding enthalpy>
-17.4

$$$$
>  <polymer-sequence>
GCCGCAGGAAACCGCGAC (.(((.(....).))).)

>  <unit-symbol>
kcal/mol

>  <folding enthalpy>
-15.6

$$$$
>  <polymer-sequence>
GATAACGAAAGTTTATC ((((((....))).)))

>  <unit-symbol>
kcal/mol

>  <folding enthalpy>
-14.2

$$$$
>  <polymer-sequence>
GATCGCACAAGCGATC ((((((....))))))

>  <unit-symbol>
kcal/mol

>  <folding enthalpy>
-37

$$$$
>  <polymer-sequence>
GCGACCTCTCGC ((((....))))

>  <unit-symbol>
kcal/mol

>  <folding enthalpy>
-18.6

$$$$

###

assay-protocol: melting temperature; fluorescence melt of hairpins on a sequencing array, two-state fit, raised by 9.35 °C to match UV melts
measurement-context: sodium 0.088 M

>  <polymer-sequence>
GATCATGCCCATGATC ((((((....))))))

>  <Tm>
53.5 °C

$$$$
>  <polymer-sequence>
GAGTCTGGAAACAGACTC (((((((....)))))))

>  <Tm>
65.3 °C

$$$$
>  <polymer-sequence>
GCCCGAGGAAACTCAGGC (((.(((....))).)))

>  <Tm>
45.1 °C

$$$$
>  <polymer-sequence>
GAGGACGAAAGTCGACTC ((((((....)))..)))

>  <Tm>
40.6 °C

$$$$
>  <polymer-sequence>
GCCACCGAAAGGTGAGGC ((((((....)))..)))

>  <Tm>
54.9 °C

$$$$
>  <polymer-sequence>
GTGTGTGGAAACACGTAC ((..(((....)))..))

>  <Tm>
38.7 °C

$$$$

###

assay-protocol: melting temperature; fluorescence melt of hairpins on a sequencing array, two-state fit, raised by 9.35 °C to match UV melts
measurement-context: sodium 0.088 M
The label T is reserved for Tm strictly under 50 °C; F covers values equal to or above it.

>  <polymer-sequence>
GTCCCCGAAAGGGTGAC ((((((....))).)))

>  <discrete-label>
F

$$$$
>  <polymer-sequence>
GAGGGCGAAAGCCGACTC ((((((....)))..)))

>  <discrete-label>
T

$$$$
>  <polymer-sequence>
GGCTGTCGAAAGACCGCC (((.(((....))).)))

>  <discrete-label>
F

$$$$
>  <polymer-sequence>
GTGTCCGAAAGGACGCAC ((((((....)))..)))

>  <discrete-label>
F

$$$$
>  <polymer-sequence>
GCATTGCGAAAGCCCTGC (((..((....))..)))

>  <discrete-label>
T

$$$$
>  <polymer-sequence>
GATCGGGGAAACCTGGTC ((.(.((....)).).))

>  <discrete-label>
T

$$$$
>  <polymer-sequence>
GGCCCTGCGAAAGCAGCC (((..(((....))))))

>  <discrete-label>
T

$$$$
>  <polymer-sequence>
GAAGATCCGAAAGGATTC (((..(((....))))))

>  <discrete-label>
T

$$$$
>  <polymer-sequence>
GACAACGAAAGTTTGGTC ((((((....)))..)))

>  <discrete-label>
T

$$$$
>  <polymer-sequence>
GCTTCGCGAAAGCTATGC ((.(.((....)).).))

>  <discrete-label>
T

$$$$
>  <polymer-sequence>
GATCTTTTCTAAGATC ((((((....))))))

>  <discrete-label>
T

$$$$
